# System: Zymoseptoria tritici
# EXPERIMENT_DESCRIPTION: Leaf blotch of wheat (SEPTTR) disease control on wheat seedlings
# Type: in vivo
# CONDITION_SET: HV application at 100 ppm; 1 Day Protectant; wheat leaf blotch
RECORDED_METRIC: SEPTTR 1DP disease control rating, HV activity

| COMPOUND | REPORTED |
| --- | --- |
| CCOc1ccnc(C(=O)N[C@@H](C)C(=O)O[C@@H](C)[C@H](Oc2ccccc2)C(C)C)c1O | B (≤ 80) |
| CC(NC(=O)c1nccc(Cl)c1O)C(=O)OC(C)C(Oc1ccccc1)C(C)C (stereo not shown) | D |
| COc1ccnc(C(=O)NC(C)C(=O)OC(C)C(OC(=O)C(C)C)C(C)C)c1O (stereo not shown) | B (≤ 80) |
| CCC(CC)[C@@H](Oc1ccccc1Cl)[C@H](C)OC(=O)[C@@H](NC(=O)c1nccc(OC)c1O)C(C)C | B (≤ 80) |
| COc1ccnc(C(=O)N[C@H](C)C(=O)O[C@H](C)[C@@H](Oc2ccccc2)C(C)C)c1O | B (≤ 80) |
| CCC(CC)C(Oc1ccc(Cl)cc1Cl)C(C)OC(=O)C(C)NC(=O)c1nccc(OC)c1O (stereo not shown) | D |
| CCC(CC)C(Oc1ccc(Cl)cc1Cl)C(C)OC(=O)C(CC(C)C)NC(=O)c1nccc(OC)c1O (stereo not shown) | D |
| C=CCC(Oc1ccccc1)C(C)OC(=O)C(C)NC(=O)c1nccc(OC)c1O (stereo not shown) | B (≤ 80) |
| CCC(Cc1ccccc1)C(OCC(C)C)C(C)OC(=O)CNC(=O)c1nccc(OC)c1OCOC(C)=O (stereo not shown) | B (≤ 80) |
| COc1ccnc(C(=O)N[C@@H](C)C(=O)O[C@@H](C)COC(C)(C)C)c1O | B (≤ 80) |
| COc1ccnc(C(=O)NC(C)C(=O)OC(C)C(Oc2cccc3ccccc23)C(C)C)c1O (stereo not shown) [Cmpd 397] | B (≤ 80) |
| CCC(CCC(C)C)C(OCC1CC1)C(C)OC(=O)C(C)NC(=O)c1nccc(OC)c1O (stereo not shown) | D |
| COc1ccnc(C(=O)NC(C)C(=O)OC(C)C(Oc2cccc(F)c2)C(C)C)c1O (stereo not shown) | B (≤ 80) |
| COc1ccnc(C(=O)N[C@@H](C)C(=O)O[C@@H](C)COc2ccccc2)c1O | B (≤ 80) |
| CCC(C)C(NC(=O)c1nccc(OC)c1O)C(=O)OC(C)C(Oc1ccc(C(F)(F)F)cc1)C(C)C (stereo not shown) | B (≤ 80) |

----------
# Test system: Zymoseptoria tritici
# EXPERIMENT_DESCRIPTION: Leaf blotch of wheat (SEPTTR) disease control on wheat seedlings
# Assay type: in vivo
# CONDITION_SET: HV application, 100 ppm, 1 Day Protectant, wheat leaf blotch
RECORDED_METRIC: HV activity at 100 ppm SEPTTR 1DP (disease control rating)

| MOLECULE | REPORTED |
| --- | --- |
| COc1cc(O[C@H](CC(C)C)[C@H](C)OC(=O)[C@H](C)NC(=O)c2nccc(OC)c2O)ccc1Cl [Cmpd 1052] | A (> 80) |
| CC(C)C[C@@H](Oc1cc(F)ccc1F)[C@H](C)OC(=O)[C@H](C)NC(=O)c1ncccc1O [Cmpd 1036] | B (≤ 80) |
| COc1ccnc(C(=O)N[C@@H](C)C(=O)O[C@@H](C)[C@@H](CC(C)C)Oc2cc(F)ccc2F)c1O [Cmpd 1049] | A (> 80) |
| COc1ccnc(C(=O)N[C@@H](C)C(=O)O[C@@H](C)[C@@H](CC(C)C)OCC(C)C)c1O [Cmpd 1044] | B (≤ 80) |
| CCOc1ccnc(C(=O)N[C@@H](C)C(=O)O[C@@H](C)[C@@H](CC(C)C)Oc2cc(F)ccc2F)c1O [Cmpd 1040] | D |
| COc1ccnc(C(=O)N[C@@H](C)C(=O)O[C@@H](C)[C@@H](CC(C)C)Oc2cccc(Cl)c2)c1O [Cmpd 1050] | A (> 80) |
| CC(C)C[C@@H](Oc1cccc(Cl)c1)[C@H](C)OC(=O)[C@H](C)NC(=O)c1ncccc1O [Cmpd 1037] | A (> 80) |
| COc1ccnc(C(=O)N[C@@H](C)C(=O)O[C@@H](C)[C@@H](CC(C)C)Oc2cccc(F)c2)c1O [Cmpd 1048] | B (≤ 80) |
| COc1ccnc(C(=O)N[C@@H](C)C(=O)O[C@@H](C)[C@@H](CC(C)C)Oc2ccc(C)cc2Cl)c1O [Cmpd 1051] | B (≤ 80) |
| CCOc1ccnc(C(=O)N[C@@H](C)C(=O)O[C@@H](C)[C@@H](CC(C)C)Oc2cccc(F)c2)c1O [Cmpd 1039] | D |
| COc1ccnc(C(=O)N[C@@H](C)C(=O)O[C@@H](C)[C@@H](CC(C)C)OCC2CC2)c1O [Cmpd 1045] | D |
| Cc1ccc(O[C@H](CC(C)C)[C@H](C)OC(=O)[C@H](C)NC(=O)c2ncccc2O)c(Cl)c1 [Cmpd 1038] | D |
| CC(C)C[C@@H](Oc1cccc(F)c1)[C@H](C)OC(=O)[C@H](C)NC(=O)c1ncccc1O [Cmpd 1035] | B (≤ 80) |
| COc1ccnc(C(=O)NC(C)C(=O)OC(C(C)C)C(Oc2ccccc2)C(C)C)c1O (centres unmarked) [Cmpd 1031] | B (≤ 80) |
| COc1ccnc(C(=O)N[C@@H](C)C(=O)O[C@@H](C)[C@@H](CC(C)C)Oc2ccc3ccccc3c2)c1O [Cmpd 1046] | D |
| C=CC(OC(=O)C(C)NC(=O)c1nccc(OC)c1O)C(Oc1ccccc1)C(C)C (centres unmarked) [Cmpd 1033] | A (> 80) |
| COc1ccnc(C(=O)N[C@@H](C)C(=O)O[C@@H](C)[C@@H](CC(C)C)Oc2ccc(Cl)cc2)c1O [Cmpd 1047] | B (≤ 80) |
